system: CDKL5; details: concentration: 1 μM, replicates: in singlicate; n = 1
measure.name: %Inh (%)
Numbers only here, please. The scale is %.

Worked examples follow.
molecule	output.unit	%Inh
CNc1nccc(-c2c(-c3ccc(F)cc3)ncn2C2CCN(C)CC2)n1 [SB-222903]	%	0
O=c1cc(N2CCOCC2)nc2n(Cc3cccc(Cl)c3)ccn12 [GSK2296823]	%	4
O=C(Nc1ccccc1F)NC1CCN(c2ccnc(Nc3ccc(F)cc3)n2)C1 (centres unmarked) [GSK1379722]	%	0
FC(F)(F)c1cc(Nc2nccc(-c3c(-c4ccc(Cl)cc4)nn4ncccc34)n2)ccc1Cl [GW829351]	%	0

Okay, now this molecule:
[ask] Supply reported %Inh belonging to this molecule: CN1c2ccc(-c3ccc(C(=O)NCCO)cc3)cc2-c2[nH]ncc2S1(=O)=O
[reply] 0

* * *

tested on: ZAK; details: concentration: 1 μM, replicates: in singlicate; n = 1
We begin with a simple list: items and their reported %Inh.
In your response, the unit should come after the numeric value.

Field: example entries. Status: answers known.
compound.string	observed.result
Cc1ccc(C)c(NC(=O)NCCNc2ccnc(Nc3ccc(F)cc3)n2)c1	34%
Cl.c1ccc(Cn2ccc3cc(Nc4ncnc5ccccc45)ccc32)cc1	6%
Fc1ccc(-c2ncn(CCCNCc3ccccc3)c2-c2ccncc2)cc1	10%
CCc1nc(-c2cccc(N(C)S(=O)(=O)c3ccccc3)c2)c(-c2ccnc(Nc3ccc(N4CCN(C(C)=O)CC4)nc3)n2)s1	83%
O=C(Nc1ccccc1)Nc1ccc(Oc2ccc3nccn3n2)cc1	4%
Fc1ccc(Nc2nccc(-c3c(-c4ccc(Cl)cc4)nn4ncccc34)n2)cc1F	18%
Cc1cc(N2CCC(NS(=O)(=O)c3ccc(F)cc3)CC2)nc(Nc2cccc(C#N)c2)n1.O=C(O)C(F)(F)F	0%

Proceeding to the next molecule to report its %Inh.
[ask] Answer with reported %Inh of OCCOCCn1ccc2ncnc(Nc3ccc(Oc4cccc(Cl)c4)c(Cl)c3)c21
[reply] 0%

* * *

// values below are reported %Inh
tested on: FLT3; details: concentration: 1 μM, replicates: in singlicate; n = 1
Only the number, expressed in %, is required.

compound.string	target.of.assay	measure.name	output.unit	observed.result
CSc1nn2c(=O)cc(N3CCOCC3)nc2n1Cc1cccc(Cl)c1Cl	FLT3	%Inh	%	0
Cl.O=S(=O)(c1cccc(F)c1)c1ccc(Nc2ncnc3cc(Br)sc23)cc1Cl	FLT3	%Inh	%	0
Cl.c1ccc(Cn2ccc3cc(Nc4ncnc5ccccc45)ccc32)cc1	FLT3	%Inh	%	0

[ask] Report %Inh, nothing else, for this molecule: FC(F)(F)c1ccc(-c2nn3ncccc3c2-c2ccnc(Nc3cccc(C(F)(F)F)c3)n2)cc1
[reply] 0

[ask] Entry COc1ccc(-c2oc3ncnc(N)c3c2-c2ccc(OC)cc2)cc1 needs its %Inh filled in; supply it.
[reply] 13

[ask] Provide only the value of recorded %Inh for Cc1cc(N2CCC(NS(=O)(=O)c3ccc(F)cc3)CC2)nc(Nc2cccc(C#N)c2)n1.O=C(O)C(F)(F)F
[reply] 4

[ask] Fill in %Inh for record CCC(CC)(CC)n1cnc2c(N)ncnc21
[reply] 11

* * *

Entries with their measured Kd, system TYK2(JH2domain-pseudokinase):
Write the number in nM without appending the unit.

compound.string	output.unit	Kd
CC(=O)Nc1n[nH]c2ncc(-c3ccccc3)cc12	nM	580

Note: attention shifts to another entry.
[ask] Write down the reported Kd (system: TYK2(JH2domain-pseudokinase)) of COc1ccc(-c2oc3ncnc(N)c3c2-c2ccc(OC)cc2)cc1
[reply] 1600

* * *

test system: MAK
pKd: −log10 of the molar value.
measure.name: pKd

[ask] State pKd on MAK. Entry: O=C(NCCCN1CCCC1=O)c1cnc(NCc2cc(Cl)ccc2Cl)nc1NC1CCNCC1
[reply] < 5.00

* * *

test system: DCAMKL3; construct: gene DCLK3; details: concentration: 1 μM, replicates: in singlicate; n = 1
Binary label based on %Inh with cut-off 2%: below gives Y, not below gives N.

Consider the following illustrative entries.
compound.string	cat
C[C@H]1CC[C@@H](C(=O)Nc2ccccc2)CN1c1cc(-c2ccc3c(N)n[nH]c3c2)nc(N)n1	N
FC(F)(F)c1cc(Nc2nccc(-c3c(-c4ccc(Cl)cc4)nn4ncccc34)n2)ccc1Cl	Y
Nc1nc(-c2ccc3c(N)n[nH]c3c2)cc(N2CCC[C@@H](C(=O)Nc3ccccc3)C2)n1.O=C(O)C(F)(F)F.O=C(O)C(F)(F)F	Y
Cl.Cl.c1ccc(-c2cc3ccncc3cc2OC2CCNCC2)cc1	N
COC(=O)c1cccc(NC(=O)NCCNc2ccnc(Nc3ccc(F)cc3)n2)c1	N

Continue with the next compound.
[ask] Find out if reported %Inh for Cl.O=S(=O)(c1cccc(F)c1)c1ccc(Nc2ncnc3cc(Br)sc23)cc1Cl is less than 2%
[reply] N

* * *

test system: MAP3K3; settings: concentration: 1 μM, replicates: in singlicate; n = 1
measure.name: %Inh (%)
// units = %; emit number, no label

Example results:
compound.string	measure.name	observed.result
Fc1cccc(COc2ccc(Nc3ncnc4cc[nH]c34)cc2Cl)c1	%Inh	0
Fc1cccc(COc2ccc(Nc3ncnc4nn5ccccc5c34)cc2Cl)c1	%Inh	0
O=C(Nc1ccccc1)Nc1ccc(Oc2ccc3nccn3n2)cc1	%Inh	9
Nc1nc(-c2ccc3c(N)n[nH]c3c2)cc(N2CCCCC2)n1	%Inh	0
CNc1nccc(-c2c(-c3ccc(F)cc3)ncn2CCCN2CCOCC2)n1	%Inh	0
COc1ccc(NC(=O)Nc2ccc(C)c(-c3ccc(C(=O)Nc4ccncc4)cc3)c2)cc1	%Inh	0
Nc1nc(-c2cccnc2)c(-c2ccnc3ccccc23)s1	%Inh	0
Cn1ccc2ncnc(Oc3ccc(NC(=O)Nc4cccnc4)c(Cl)c3)c21	%Inh	0
c1ccc(-c2ccc3c(-c4ccnc(Nc5ccc6c(c5)OCCO6)n4)cnn3n2)cc1	%Inh	0
Clc1cc(Nc2ncnc3cc[nH]c23)ccc1OCc1ccccn1	%Inh	27

[ask] Please give measured %Inh of the following entry: Cc1ccc(C)c(NC(=O)NCCNc2ccnc(Nc3ccc(F)cc3)n2)c1
[reply] 0

* * *

system: PRKCQ
pKd: −log10 of the molar value.
measure.name: pKd

[ask] Report pKd under test system PRKCQ for COc1cc2ncnc(Nc3ccc(OCc4ccccc4Br)c(Cl)c3)c2cc1OC.Cl [GI261590] .
[reply] < 5.00

* * *

system: STK33; settings: concentration: 1 μM, replicates: in singlicate; n = 1
measure.name: %Inh (%)
Quick reminder: number only, in %, skip the unit.

Consider the reported %Inh for these molecules:
molecule	output.unit	%Inh
COc1cc2c(Nc3cccc(NC(=O)c4ccccc4)c3)ncnc2cc1OCCCN1CCOCC1	%	4
COC(=O)c1c(-c2ccccc2)c2cc(Cl)ccc2c(=O)n1Cc1ccc(S(C)(=O)=O)cc1	%	0
Cn1ccc2ncnc(Oc3ccc(NC(=O)Nc4cccnc4)c(Cl)c3)c21	%	0
CSc1nn2c(=O)cc(N3CCOCC3)nc2n1Cc1cccc(Cl)c1Cl	%	3
Nc1nc(-c2ccc3c(N)n[nH]c3c2)cc(N2CCC[C@@H](C(=O)Nc3ccccc3)C2)n1.O=C(O)C(F)(F)F.O=C(O)C(F)(F)F	%	0

[ask] Identify measured %Inh obtained with STK33 for Fc1cccc(COc2ccc(Nc3ncnc4sc(-c5ccc[nH]5)cc34)cc2Cl)c1 .
[reply] 8

[ask] Provide STK33 %Inh reading for CN1CCC(n2cnc(-c3ccc(F)cc3)c2-c2ccnc(NC3CCNCC3)n2)CC1 .
[reply] 0

[ask] Write %Inh of Cc1ccc(C)c(NC(=O)NCCNc2ccnc(Nc3ccc(F)cc3)n2)c1 ; system used: STK33
[reply] 0

* * *

tested on: NLK; settings: concentration: 1 μM, replicates: in singlicate; n = 1
measure.name: %Inh (%)
Reply numerically in %, unit not repeated.

[ask] Tell me %Inh of NC(=O)c1sc(-n2cnc3ccccc32)cc1OCc1ccccc1F when tested on NLK.
[reply] 1

* * *

test system: ZAP70; conditions: concentration: 1 μM, replicates: in singlicate; n = 1
measure.name: %Inh (%)
The response must be a number in % with no trailing unit.

compound.string	%Inh (%)
OCCOCCn1ccc2ncnc(Nc3ccc(Oc4cccc(Cl)c4)c(Cl)c3)c21	0
CC(=O)Nc1n[nH]c2ncc(-c3ccccc3)cc12	0
CC(C)N1CCC(n2cnc(-c3ccc(F)cc3)c2-c2ccnc(N)n2)CC1	5
CCc1nc(-c2cccc(C)c2)c(-c2ccnc(NC(=O)c3ccccc3)c2)s1	0

[ask] Please look at this compound and report its %Inh: FC(F)(F)c1ccc(-c2nn3ncccc3c2-c2ccnc(Nc3cccc(C(F)(F)F)c3)n2)cc1
[reply] 42

* * *

test system: p38-alpha; construct: gene MAPK14; conditions: concentration: 1 μM, replicates: in singlicate; n = 1
measure.name: %Inh (%)
Give your result in % as a bare value.

compound.string	%Inh, %
COC(=O)c1c(-c2ccccc2)c2cc(Cl)ccc2c(=O)n1Cc1ccc(S(C)(=O)=O)cc1	17

[ask] For the molecule CC(C)N1CCC(n2cnc(-c3ccc(F)cc3)c2-c2ccnc(N)n2)CC1 , report %Inh.
[reply] 96.8

[ask] Let me know recorded %Inh for Cl.c1ccc(Cn2ccc3cc(Nc4ncnc5ccccc45)ccc32)cc1 , thanks.
[reply] 2

[ask] Give the value of %Inh reported for the following: Nc1n[nH]c2nnc(-c3ccccc3)cc12
[reply] 0

[ask] Tell me measured %Inh for c1ccc(-c2ccc3c(-c4ccnc(Nc5ccc6c(c5)OCCO6)n4)cnn3n2)cc1 please.
[reply] 0
